- assaySystem: full-length beta-Catenin (Uniprot ID P35222) (Homo sapiens)
- Construct: 10 nM full-length beta-Catenin (Uniprot ID P35222)
- Sequence (P35222 1-781): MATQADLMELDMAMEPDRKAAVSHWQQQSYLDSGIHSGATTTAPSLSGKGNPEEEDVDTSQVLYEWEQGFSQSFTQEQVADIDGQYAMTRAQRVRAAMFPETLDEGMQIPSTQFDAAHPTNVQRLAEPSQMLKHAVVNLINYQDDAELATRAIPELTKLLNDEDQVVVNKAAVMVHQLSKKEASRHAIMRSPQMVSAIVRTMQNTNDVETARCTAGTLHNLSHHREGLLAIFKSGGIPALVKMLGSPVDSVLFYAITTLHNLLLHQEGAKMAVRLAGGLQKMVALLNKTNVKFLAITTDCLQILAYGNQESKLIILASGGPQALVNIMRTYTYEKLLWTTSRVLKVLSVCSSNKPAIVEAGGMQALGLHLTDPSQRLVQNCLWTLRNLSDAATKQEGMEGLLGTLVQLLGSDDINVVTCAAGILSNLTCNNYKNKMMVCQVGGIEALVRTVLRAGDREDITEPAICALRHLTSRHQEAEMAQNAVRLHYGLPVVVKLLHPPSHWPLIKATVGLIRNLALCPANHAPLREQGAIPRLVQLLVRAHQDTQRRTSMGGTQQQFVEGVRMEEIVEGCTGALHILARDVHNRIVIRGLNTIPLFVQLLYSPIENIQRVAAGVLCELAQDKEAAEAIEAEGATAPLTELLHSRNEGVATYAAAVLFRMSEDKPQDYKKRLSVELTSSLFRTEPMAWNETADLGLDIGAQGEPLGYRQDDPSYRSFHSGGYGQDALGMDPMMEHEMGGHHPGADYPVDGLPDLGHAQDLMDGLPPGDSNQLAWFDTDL
- assaySummary: Fluorescence polarization IC50 (beta-catenin / 5FAM-TCF4 10-53 competition)
- Format: binding
- runConditions: fluorescence polarization; read-out: beta-Catenin FP IC50
valueKind: pIC50
The value called pIC50 is obtained by taking minus log10 of the concentration in mol/L.

Quick one: pIC50 for CC(=O)N1CCC[C@]12CC=CCCCCC1(CCCCC=CCCCOC(=O)N3CC[C@@](C(=O)N[C@@H](Cc4ccccc4C(F)(F)F)C(=O)N[C@@H](Cc4csc5ccccc45)C(=O)N[C@@H](C)C(N)=O)(C3)NC(=O)[C@H](CC(C)C)NC(=O)[C@H](Cc3ccccc3)NC(=O)[C@H](C)NC(=O)[C@H](CCC(N)=O)NC(=O)[C@H](Cc3cccc(C(=O)O)c3)NC(=O)[C@H](CC(=O)O)NC1=O)NC(=O)[C@H](CC(C)(C)C)NC(=O)[C@H](CC(=O)O)NC2=O (stereo partly shown) [I-2517] ?
7.21

----------
- assaySummary: Solubility in PBS
- Assay type: physicochemical
- Procedure: After ultracentrifugation of the PBS solution, the supernatant was analyzed by HPLC and compared to an HPLC injection 50 μM peptide DMSO solution. Solubility was determined by: [(Area of PBS peak)/(Area of DMSO peak)]*50 uM.
The label true is reserved for Solubility strictly under 20 µM; false covers values equal to or above it.

Please let me know if CC(=O)N1CCC[C@]12CC=CCCCC1(CCCC=CCCCCCC[C@@](C)(C(=O)N[C@@H](Cc3ccccc3)C(=O)N[C@@H](Cc3c[nH]c4ccccc34)C(=O)N[C@@H](CCC(N)=O)C(N)=O)NC(=O)[C@H](C(C)C)NC(=O)[C@H](Cc3cn(C)cn3)NC(=O)[C@H](C)NC(=O)[C@H](C)NC(=O)[C@H](CC(=O)O)NC(=O)[C@H](CC(=O)O)NC1=O)NC(=O)[C@H](C)NC(=O)[C@H](CC(=O)O)NC2=O (some centres unmarked) [I-330] shows Solubility below 20 µM.
false

Check if Solubility falls below 20 µM for CC(=O)N1CCC[C@]12CC=CCCCC1(CCCC=CCCCOC(=O)N3CC[C@@](C(=O)N[C@@H](Cc4ccsc4)C(=O)N[C@@H](Cc4csc5ccccc45)C(=O)N[C@@H](CO)C(N)=O)(C3)NC(=O)[C@H](CO)NC(=O)[C@H](Cc3ccccc3)NC(=O)[C@H](C)NC(=O)[C@H](C)NC(=O)[C@H](CN(CC(=O)O)CC(F)(F)F)NC(=O)[C@H](CC(=O)O)NC1=O)NC(=O)[C@H](CC(C)(C)C)NC(=O)[C@H](CC(=O)O)NC2=O (some centres unmarked) [I-954] .
false

Say whether its Solubility is strictly beneath 20 µM. Entry: CC[C@H](C)[C@@H]1NC(=O)[C@H](CC(=O)O)NC(=O)[C@]2(CC=CCCCC3(CCCC=CCCCCCC[C@@](C)(C(=O)N[C@@H](Cc4ccccc4)C(=O)N[C@@H](Cc4csc5ccccc45)C(=O)N[C@@H](CCC(N)=O)C(N)=O)NC(=O)[C@H](CCC(N)=O)NC(=O)[C@H](Cc4ccccc4)NC(=O)[C@H](C)NC(=O)[C@H](CO)NC(=O)[C@H](CCC(=O)O)NC(=O)[C@H](CC(=O)O)NC3=O)NC1=O)CCCN2C(C)=O (some centres unmarked) [I-652]
false

Answer whether the compound CC(=O)N1CCC[C@]12CC=CCCCC1(CCCC=CCCCOC(=O)N3CC[C@@](C(=O)N[C@@H](Cc4ccsc4)C(=O)N[C@@H](Cc4csc5ccccc45)C(=O)N[C@@H](CCC(N)=O)C(=O)N[C@H](C)C(=O)N[C@H](C)C(=O)N[C@H](C)C(N)=O)(C3)NC(=O)[C@H](CC(N)=O)NC(=O)[C@H](Cc3ccccc3)NC(=O)[C@H](C)NC(=O)[C@H](C)NC(=O)[C@H](CC(=O)O)NC(=O)[C@H](CC(=O)O)NC1=O)NC(=O)[C@H](CC(C)(C)C)NC(=O)[C@H](CC(=O)O)NC2=O (some centres unmarked) has Solubility strictly less than 20 µM
false

Does CC(=O)N1CCC[C@]12CC=CCCCC1(CCCC=CCCCOC(=O)N3CC[C@@](C(=O)N[C@@H](Cc4ccsc4)C(=O)N[C@@H](Cc4csc5ccccc45)C(=O)N[C@@H](CCC(N)=O)C(N)=O)(C3)NC(=O)[C@H](CC(C)C)NC(=O)[C@H](Cc3ccccc3)NC(=O)[C@H](C)NC(=O)[C@H](C)NC(=O)[C@H](CC(=O)O)NC(=O)[C@H](CCO)NC1=O)NC(=O)[C@H](CC(C)(C)C)NC(=O)[C@H](CC(=O)O)NC2=O (some centres unmarked) have Solubility strictly under 20 µM?
true

----------
- assaySystem: beta-catenin/TCF4 engagement (Homo sapiens)
- Construct: expressed in transfected cells; host or cells: HEK293
- assaySummary: Nano-BRET target engagement assay (B-cat-Halo & TCF4-Luc in HEK293 cells)
- Format: cell-based
- runConditions: read-out: NanoBRET Abs IC50
valueKind: IC50 (µM)
# output: bare number, implied unit µM

Give the measured IC50 of CC(=O)N1CCC[C@]12CC=CCCCC1(CCCC=CCCCOC(=O)N3CC[C@@](C(=O)N[C@@H](Cc4ccsc4)C(=O)N[C@@H](Cc4csc5ccccc45)C(=O)N[C@@H](CCC(N)=O)C(=O)N[C@@H](CCCCNC(=O)c4ccc5ccccc5c4)C(N)=O)(C3)NC(=O)[C@H](CC(N)=O)NC(=O)[C@H](Cc3ccccc3)NC(=O)[C@H](C)NC(=O)[C@H](C)NC(=O)[C@H](CC(=O)O)NC(=O)[C@H](CC(=O)O)NC1=O)NC(=O)[C@H](CC(C)(C)C)NC(=O)[C@H](CC(=O)O)NC2=O (some centres unmarked) [I-915] .
15.5

Tell me the measured IC50 of CC(=O)N1CCC[C@]12CC=CCCCC1(CCCC=CCCCOC(=O)N3CC[C@@](C(=O)N[C@@H](Cc4ccccc4Cl)C(=O)N[C@@H](Cc4csc5ccccc45)C(=O)N[C@@H](CCC(N)=O)C(N)=O)(C3)NC(=O)[C@H]([C@@H](C)O)NC(=O)[C@H](Cc3ccccc3)NC(=O)[C@H](C)NC(=O)[C@H](C)NC(=O)[C@H](CC(=O)O)NC(=O)[C@H](CC(=O)O)NC1=O)NC(=O)[C@H](CC1CCCCC1)NC(=O)[C@H](CC(=O)O)NC2=O (some centres unmarked) [I-1042] , please.
11.4

----------
Please provide measured pIC50 for the entries that follow.
- assaySystem: beta-catenin/TCF4 engagement (Homo sapiens)
- Construct: expressed in transfected cells; host or cells: HEK293
- assaySummary: Nano-BRET target engagement assay (B-cat-Halo & TCF4-Luc in HEK293 cells)
- Assay type: cell-based
- runConditions: absolute IC50; read-out: NanoBRET Abs IC50
For clarity, pIC50 is expressed as the negative log10 of concentration in mol/L.

What pIC50 value was documented for this molecule, CC(=O)N1CCC[C@]12CC=CCCCC1(CCCC=CCCCOC(=O)N3CC[C@@](C(=O)N[C@@H](Cc4ccccc4C(F)(F)F)C(=O)N[C@@H](Cc4csc5ccccc45)C(=O)N[C@@H](CCC(=O)N(C)C)C(N)=O)(C3)NC(=O)[C@H](CC(C)C)NC(=O)[C@H](Cc3ccccc3)NC(=O)[C@H](C)NC(=O)[C@H](CCC(=O)N(C)C)NC(=O)[C@H](Cc3cccc(C(=O)O)c3)NC(=O)[C@H](CC(=O)O)NC1=O)NC(=O)[C@H](CC(C)(C)C)NC(=O)[C@H](CC(=O)O)NC2=O (some centres unmarked) [I-2300] ?
5.92

# pIC50 lookup, item CC(=O)N1CCC[C@]12CC=CCCCC1(CCCC=CCCCOC(=O)N3CC[C@@](C(=O)N[C@@H](Cc4ccsc4)C(=O)N[C@@H](Cc4csc5ccccc45)C(=O)N[C@@H](CCC(N)=O)C(N)=O)(C3)NC(=O)[C@H](CC(C)C)NC(=O)[C@H](Cc3ccccc3)NC(=O)[C@H](C)NC(=O)C(C)(C)NC(=O)[C@H](CC(=O)O)NC(=O)[C@H](CC(=O)O)NC1=O)NC(=O)[C@H](CC(C)(C)C)NC(=O)[C@H](CC(=O)O)NC2=O (some centres unmarked) [I-1177]
5.37

Which measured pIC50 value corresponds to CC(=O)N1CCC[C@]12CC=CCCCC1(CCCC=CCCCCCC[C@@](C)(C(=O)N[C@@H](Cc3cccs3)C(=O)N[C@@H](Cc3csc4ccccc34)C(=O)N[C@@H](CCC(N)=O)C(N)=O)NC(=O)[C@H](CC(N)=O)NC(=O)[C@H](Cc3ccccc3)NC(=O)[C@H](C)NC(=O)[C@H](C)NC(=O)[C@H](CC(=O)O)NC(=O)[C@H](CC(=O)O)NC1=O)NC(=O)[C@H](CC(C)(C)C)NC(=O)[C@H](CC(=O)O)NC2=O (some centres unmarked) [I-1391] ?
4.46
